- experimental.target: Sentrin-specific protease 8 (Homo sapiens)
- protocol.details: blockers of SENP8 deneddylase activity – biochemical, fluorescence, Nedd8 protein substrate, uHTS, primary screen (AID 602440)
- condition.description: recombinant SENP8, Nedd8 substrate fluorescence; at 20 µM
The whole screen tested about 360,000 compounds, of which about 2,300 (0.64%) were called active. Rule as the data show it: active = inhibition mostly above about 40% (no sharp cut-off); inactive = mostly below about 27%. Many of the other results were omitted from the sample, so actives are more common in it than they were.
Outcome (select one): TRUE = active, FALSE = inactive

What outcome does the record of this test show for `CC(=O)c1cnc(SCCN2C(=O)c3ccccc3C2=O)nc1C` ?
FALSE

Which outcome was assigned to `CN1/C(=c2/s/c(=C3/C(=O)N(c4ccccc4)NC3=Nc3ccccc3)n(C)c2=O)C(C)(C)c2ccccc21` in this test?
TRUE

What classification did Cc1cc(NC(=O)CCC(=O)N(Cc2ccccc2)C(C(=O)NC2CCCC2)c2ccc(C)o2)no1 (stereo not drawn) end up with in this test?
FALSE

Tell me the recorded outcome of this test for `OCC1(Cc2ccccc2)CCN(Cc2cc3ccccc3o2)CC1` .
FALSE

Lab log entry: `Cc1ccc(N=Nc2c(C)[nH]n(-c3ccccc3)c2=O)cc1` — outcome as called in the assay?
TRUE

Outcome logged for `N#Cc1cccc(NC(=O)CN2CCCCCC2)c1` in this assay:
FALSE

Check the results log: what was the call for `COC(=O)c1ccccc1NC(=O)C1CCN(C(=O)N2CCOc3ccccc32)CC1` ?
FALSE

Returns: the outcome recorded for `CCCCNC(=S)N/N=C1\CCCCc2ccccc21` in this assay.
FALSE

Hi, do you know how `Cc1cc(NC(=O)COC(=O)COc2ccc(Cl)cc2C)c([N+](=O)[O-])cc1C` came out in this test?
FALSE

Outcome logged for `O=C(CN(C(=O)c1csnn1)c1cccc(F)c1)NCc1ccc(F)cc1` in this assay:
FALSE

Call for entry `O=C(c1cc2cc(Br)cc(Br)c2oc1=O)N1CCOCC1` :
FALSE

Test call for this molecule, please: `COc1ccccc1CNC(=O)COC(=O)c1sc(C)nc1C`
FALSE

Identify the outcome logged in this assay for the molecule shown: `COc1ccc(N(CC(=O)Nc2ccc(C)cc2C)S(=O)(=O)c2ccccc2[N+](=O)[O-])c(OC)c1`
FALSE

Test call, this molecule: `Cn1c2ccccc2n2c(=O)c(=O)n(CC(=O)c3ccc(F)cc3)nc12`
FALSE

# lookup: test call for `CCOC(=O)/C(=N\Nc1ccccc1[N+](=O)[O-])c1csc(Nc2ccccc2)n1`
TRUE

What did the test return for Cc1nc2ccccc2n1CC(O)c1ccccc1 (stereo not drawn) ?
FALSE

Record request — test call for `CC(C)(C)c1cc(P(=O)(c2ccccc2)c2ccccc2)ccc1O`
FALSE

How did this test come out for `CC(C)Cc1nnc(NC(=O)CCc2ccccc2)s1` ?
FALSE

Recorded call for `CC1=C/C(=N\OS(=O)(=O)c2ccccc2)C=CC1=O` ?
TRUE

Dear all, I need the recorded test outcome for Cc1cc(C)nc(N2C(=O)CC(Cc3ccccc3)C2=O)n1 (stereo not drawn) , thank you.
FALSE

Record lookup: outcome of this test for `CCn1c(O)c(N=NC2=NC(=O)CS2)c2cc(C)ccc21` ?
TRUE

Look up the recorded call for Cc1cc(N2C(=O)C(=O)/C(=C(/O)c3ccc(Cl)cc3)C2c2cccc(Br)c2)no1 (stereo not drawn) in this test.
FALSE

Recorded call for CC(C)(C)NC(=O)C(CCc1ccccc1)n1c(=O)c(-c2ccccc2)nc2ccccc21 (stereo not drawn) ?
FALSE

Hi team, can someone confirm the assay call for O=C1Nc2c(Br)cc(Br)cc2C1(O)N1CCOCC1 (stereo not drawn) ?
TRUE

Write down the call the test reported for this molecule. Item: CCCC1CCC(=NNC(=S)NCCc2ccccc2)CC1 (stereo not drawn)
TRUE

So what was the verdict on `CN(C)c1ccc(/C=C/C(=O)c2ccc(O)cc2)cc1[N+](=O)[O-]` in this test?
TRUE

Please state the recorded outcome for this molecule: COc1ccccc1C(CNC(=O)c1cccc(NS(=O)(=O)c2ccc(Br)cc2)c1)N(C)C (stereo not drawn)
FALSE

Kindly provide the recorded test outcome for the following molecule: `C[C@H]1CN([C@@H](C)CO)C(=O)CCCn2cc(nn2)CO[C@@H]1CN(C)S(=O)(=O)c1ccc(-n2cccn2)cc1`
FALSE

// outcome(item) with item = `Cc1ccc(S(=O)(=O)NC(=O)COc2ccccc2C)cc1`
FALSE

What is the recorded call for this molecule in the test? O=C1NC(c2ccccc2)CCC1(Cl)Cl (stereo not drawn)
FALSE

Answer briefly: the call reported for CC1(C(=O)Nc2cccc3c2CCCC3)CCN1C(=O)CCc1ccc(Cl)cc1Cl (stereo not drawn) in this assay.
FALSE

Tell me the recorded outcome of this test for CC1CCCC(N2CCN(C(=O)c3ccc(F)cc3)CC2)C1 (stereo not drawn) .
FALSE

Recorded test outcome, item `Cc1[nH]n(C)c(=O)c1N=Nc1ccc(S(C)(=O)=O)cc1`
FALSE

###

- experimental.target: Sentrin-specific protease 8 (Homo sapiens)
- protocol.details: blockers of SENP8 deneddylase activity – biochemical, fluorescence, Nedd8 protein substrate, uHTS, primary screen (AID 602440)
- condition.description: recombinant SENP8, Nedd8 substrate fluorescence; at 20 µM; active compounds read high
The whole screen tested about 360,000 compounds, of which about 2,300 (0.64%) were called active. This excerpt belongs to a sample that is enriched for actives.
Decision: inhibition >= 20% yields t, all other cases yield f.

I'd appreciate it if you could say whether `CC(C)c1ccc(NC(=O)[C@@H](NC(=O)N2CC(=O)Nc3ccccc32)C(C)C)cc1` has inhibition at least equal to 20%.
f

Quick check: does CCCCN1CC(N2CCN(Cc3cccc(C)c3)CC2)CS1(=O)=O (stereo not given) have inhibition greater than or equal to 20%?
f

Does inhibition meet or surpass 20% for `COc1ccc(NC(=O)/C(N=Nc2cccc(S(=O)(=O)Nc3ccc(SC(F)F)cc3)c2)=C(\C)O)cc1` ?
t

inhibition >= 20% for `COC(=O)c1ccc(S(=O)(=O)N(CCO)Cc2ccccc2)n1C` ?
t

Hi, just wondering whether `Oc1c(CN2CCOCC2)ccc(CN2CCOCC2)c1O` shows inhibition of 20% or higher.
t

###

- experimental.target: Sentrin-specific protease 8 (Homo sapiens)
- protocol.details: blockers of SENP8 deneddylase activity – biochemical, fluorescence, Nedd8 protein substrate, uHTS, primary screen (AID 602440)
- condition.description: recombinant SENP8, Nedd8 substrate fluorescence; at 20 µM; active compounds read high
The campaign covered roughly 360,000 compounds. About 2,300 (0.64%) were called active. Only a selection was taken, and actives are over-represented in it overall.
observation.type: inhibition (%)
State the answer as a number, implicitly in %.

Lab note: measured inhibition of `Cc1ccc(S(=O)(=O)N(CC(=O)NN=C2CCN(C)CC2)c2ccc(F)cc2)cc1` was 10.4

Looking up `CN(CC(=O)Nc1ccccc1Cl)C(=O)c1ccccc1SCC(=O)N1CCCC1` , I found its inhibition recorded as 3.2

Note to self: inhibition recorded for `COCCNC(=O)NC(=O)COC(=O)C1(c2ccc(Cl)cc2)CC1` was 6.8

The compound listed as `CCN1CCC2(CC1)N=C(c1ccc(F)cc1)C(=S)N2C(=O)c1ccc(C)cc1` shows inhibition equal to 48.7

Lab note: measured inhibition of `O=C(Cn1cc(-c2nnnn2-c2ccc(Cl)cc2)c(=O)c2ccccc21)c1ccccc1` was 26.2

// field: inhibition; key: CC(C(=O)NC1CCCC1)N1CCN(S(=O)(=O)c2ccccc2Cl)CC1 (stereo not drawn) ; value = 7.4

Value of inhibition reported for the compound CCN1CCC(O)(/C=C/c2ccc(C)cc2)C(C(=O)/C=C/c2ccc(C)cc2)C1 (stereo not drawn) is 16.7

Lab book: inhibition of `FC(F)(F)c1cc(C(F)(F)F)c2ccc(N3CCN(c4ccccc4)CC3)nc2n1` noted as -2.9
